- system-tested: human muscarinic M1 receptors (Homo sapiens, UniProt P11229)
- Construct: host or cells: A9L cells
- Sequence (P11229 whole entry): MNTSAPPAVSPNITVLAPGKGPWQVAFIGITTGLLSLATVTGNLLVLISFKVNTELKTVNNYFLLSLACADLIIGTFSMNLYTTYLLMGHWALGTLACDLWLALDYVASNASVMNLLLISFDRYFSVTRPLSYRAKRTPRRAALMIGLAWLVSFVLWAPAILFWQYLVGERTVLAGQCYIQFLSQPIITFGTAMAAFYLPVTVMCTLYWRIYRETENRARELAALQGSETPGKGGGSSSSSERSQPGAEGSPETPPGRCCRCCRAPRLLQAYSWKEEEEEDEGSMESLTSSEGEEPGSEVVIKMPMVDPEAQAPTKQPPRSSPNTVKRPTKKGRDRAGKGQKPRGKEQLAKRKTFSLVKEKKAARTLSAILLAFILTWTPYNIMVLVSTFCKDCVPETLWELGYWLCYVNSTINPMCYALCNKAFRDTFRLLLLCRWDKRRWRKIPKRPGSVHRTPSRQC
- experimental-details: IP production in A9L cells with human M1 receptors (IPOne TR-FRET), Example 28
- Format: cell-based
- study-conditions: percentage of maximal stimulation by carbachol
Catalogue of huM1/A9L Smax readings, one per entry.
quantity-measured: huM1/A9L Smax

compound	result
Cc1noc([C@@H]2CCCNC2)n1	147%
Cc1noc([C@H]2CNC[C@@H](C)C2)n1	9%
Cc1noc([C@H]2CCCNC2)n1	129%
Cc1noc([C@@H]2CNC[C@@H](C)C2)n1	18%
Cc1noc([C@H]2CNCC[C@H]2C)n1	7%
[2H]C([2H])([2H])c1noc(C2CCCNC2)n1 (stereo not shown)	116%
Cc1nsc(C2CCCNC2)n1.Cl (stereo not shown) [Compound 12a]	101%
Cc1noc(C2CCCNC2)n1 (racemic)	108%
[2H]C([2H])([2H])c1noc([C@H]2CCCNC2)n1	81%
CCc1noc(C2CCCNC2)n1 (stereo not shown)	15%
Cc1noc([C@@H]2CCCN[C@@H]2C)n1	41%
Cc1noc(C2CCNC2)n1 (stereo not shown)	113%
Cc1noc([C@H]2CCCN[C@@H]2C)n1	3%
Cc1noc([C@H]2CC[C@H](C)NC2)n1	15%
Nc1noc(C2CCCNC2)n1 (stereo not shown)	97%
Cc1noc(C2CCC(C)NC2)n1 (stereo not shown)	14%
Cc1noc(C2CCCN(C)C2)n1 (stereo not shown)	20%
c1nsc(C2CCCNC2)n1 (stereo not shown) [Compound 12b, 5-(piperidin-3-yl)-1,2,4-thiadiazol]	100%
Cc1noc(C2(F)CCCNC2)n1 (stereo not shown)	81%
[2H]C([2H])([2H])c1noc([C@@H]2CCCNC2)n1	90%
Cc1noc(C2=CCCN(C)C2)n1	72%
Cc1noc([C@@H]2CNCC[C@H]2C)n1	23%
